Source listed as patent US10961234B2.

The following molecules are listed with their measured EC50 values.
- Test system: LM2 and MDA-MB-231 breast cancer cell lines
- ASSAY INFO: PAICS 2D cell proliferation assay
- Format: cell-based
- CONDITION NOTES: Homo sapiens; 72 hours incubation; cell line (LM2 or MDA-MB-231) not given

| MOLECULE | VAL |
| --- | --- |
| CCNCCCn1cc(-c2ccc(Cl)c(NC(=O)c3coc(N)n3)c2)cn1 | < 100 nM |

Look up and report measured EC50 for this entry: Nc1nc(C(=O)Nc2cc(-c3ccc(CN4CC5CNCC5C4)nc3)ccc2Cl)co1 (centres unmarked)
250 to 500 nM

Look up and report measured EC50 for this entry: `CN1CCN(CCCn2cc(-c3ccc(Cl)c(NC(=O)c4coc(N)n4)c3)cn2)CC1`
100 to 250 nM

Look up and report measured EC50 for this entry: `Nc1nc(C(=O)Nc2cc(-c3ccc(CN[C@H]4CC[C@H](N)CC4)nc3)ccc2Cl)co1`
250 to 500 nM

Look up and report measured EC50 for this entry: Nc1nc(C(=O)Nc2cc(-c3ccc(OC4CCNC4)nc3)ccc2Cl)co1 (centres unmarked)
250 to 500 nM

Look up and report measured EC50 for this entry: `CN(C)CCCOc1ccc(-c2ccc(Cl)c(NC(=O)c3coc(N)n3)c2)cn1`
100 to 250 nM

Look up and report measured EC50 for this entry: `CN(C)CCCc1ncc(-c2ccc(Cl)c(NC(=O)c3coc(N)n3)c2)s1`
< 100 nM

Look up and report measured EC50 for this entry: `Nc1nc(C(=O)Nc2cc(-c3nc(CN4CCNCC4)cs3)ccc2Cl)co1`
< 100 nM
